src = patent US20260258039A1

- Test target: ER (Homo sapiens, UniProt P03372)
- Construct: T47D breast cancer cells were subcultured in cell culture medium; endogenous in cells; host or cells: T47D breast cancer cells
- Test method notes: Degradation activities on ER (ELISA) in T47D breast cancer cells
- Format: cell-based
- Test parameters: T47D cells, 24 h, ELISA; concentration required to degrade 50% of the target protein
Recorded DC50, one value per entry.

These solved cases illustrate the format of a correct answer.
Molecule	DC50
O=C1CCC(N2Cc3cc(N4CCC(CN5CC6(CCN(c7ccc([C@@H]8c9ccc(O)cc9CC[C@@H]8c8ccccc8)cc7)CC6)C5)CC4)ccc3C2=O)C(=O)N1 (stereo partly drawn)	< 0.01 µM
O=C1CCC(N2Cc3cc(N4CCC5(CCN(C6CCN(c7ccc([C@@H]8c9ccc(O)cc9CC[C@@H]8c8ccccc8)cc7)CC6)C5)C4)ccc3C2=O)C(=O)N1 (stereo partly drawn)	> 0.1 µM

As a next step, examine the molecule that follows.
Prompt line: Reported DC50 for O=C1CC[C@H](N2Cc3cc(N4CC5(CCN(CC6CCN(c7ccc([C@@H]8c9ccc(O)cc9OC[C@@H]8c8ccccc8F)cc7)CC6)CC5)C4)ccc3C2=O)C(=O)N1 : what is it?
Response line: < 0.01 µM

====

- Test target: ER (Homo sapiens)
- Construct: T47D breast cancer cells were subcultured in cell culture medium; endogenous in cells; host or cells: T47D breast cancer cells
- Test method notes: Degradation activities on ER (ELISA) in T47D breast cancer cells
- Format: cell-based
- Test parameters: T47D cells, 24 h, ELISA; maximum percentage of target protein degraded; read-out: Dmax
Recorded Dmax, one value per entry.

Molecule	Test target	Dmax
O=C1CC[C@H](N2Cc3cc(N4CC5(CCN(CC6CCN(c7c(F)cc([C@@H]8c9ccc(O)cc9OC[C@@H]8c8c(F)cccc8F)cc7F)CC6)CC5)C4)ccc3C2=O)C(=O)N1	ER (Homo sapiens)	> 75%
O=C1CCC(N2Cc3cc(N4CC5(CCN(CC6CCN(c7ccc([C@@H]8c9ccc(O)cc9OC[C@@H]8c8cccc(F)c8F)cc7F)CC6)CC5)C4)ccc3C2=O)C(=O)N1 (some centres unmarked)	ER (Homo sapiens)	50 to 75%
O=C1CCC(N2Cc3cc(N4CC5(CCN(CC6CCN(c7ccc([C@H]8c9ccc(O)cc9OC[C@H]8c8c(F)cccc8F)cc7)CC6)CC5)C4)ccc3C2=O)C(=O)N1 (some centres unmarked)	ER (Homo sapiens)	< 50%
O=C1CCC(N2Cc3cc(N4CC5(CCN(CC6CCN(c7ccc([C@H]8c9ccc(O)cc9OC[C@H]8c8ccccc8F)cc7)CC6)CC5)C4)ccc3C2=O)C(=O)N1 (some centres unmarked)	ER (Homo sapiens)	< 50%
O=C1CCC(N2Cc3cc(N4CC5(CCN(CC6CCN(c7ccc([C@@H]8c9ccc(O)cc9OC[C@@H]8c8c(F)cccc8F)cc7F)CC6)CC5)C4)ccc3C2=O)C(=O)N1 (some centres unmarked)	ER (Homo sapiens)	50 to 75%
O=C1CCC(N2Cc3cc(N4CCC5(CCN(C6CCN(c7ccc([C@@H]8c9ccc(O)cc9CC[C@@H]8c8ccccc8)cc7)CC6)C5)C4)ccc3C2=O)C(=O)N1 (some centres unmarked)	ER (Homo sapiens)	< 50%
O=C1CCC(N2Cc3cc(N4CC5(CCN(CC6CN(c7ccc(C8c9ccc(O)cc9OC[C@@H]8c8ccccc8F)cc7)C6)CC5)C4)ccc3C2=O)C(=O)N1 (some centres unmarked)	ER (Homo sapiens)	50 to 75%
O=C1CC[C@H](N2Cc3cc(N4CC5(CCN(CC6CCN(c7ccc([C@@H]8c9ccc(O)cc9OC[C@@H]8c8c(F)cccc8F)cc7F)CC6)CC5)C4)ccc3C2=O)C(=O)N1	ER (Homo sapiens)	> 75%

Prompt line: Reported Dmax for O=C1CCC(N2Cc3cc(N4CCC(N5CC6(CCN(c7ccc([C@@H]8c9ccc(O)cc9CC[C@@H]8c8ccccc8F)cc7F)CC6)C5)CC4)ccc3C2=O)C(=O)N1 (some centres unmarked) : what is it?
Response line: > 75%

Prompt line: Reported Dmax for O=C1CCC(N2Cc3cc(N4CCC(N5CC6(CCN(c7ccc([C@@H]8c9ccc(O)cc9OC[C@@H]8c8ccccc8F)cc7F)CC6)C5)CC4)ccc3C2=O)C(=O)N1 (some centres unmarked) : what is it?
Response line: > 75%

Prompt line: Reported Dmax for O=C1CCC(N2Cc3cc(N4CC5(CCN(CC6CCN(c7ccc(C8=C(c9c(F)cccc9F)COc9cc(O)ccc98)cc7F)CC6)CC5)C4)ccc3C2=O)C(=O)N1 (centres unmarked) : what is it?
Response line: > 75%

====

- Test target: ER (Homo sapiens)
- Construct: T47D breast cancer cells were subcultured in cell culture medium; endogenous in cells; host or cells: T47D breast cancer cells
- Test method notes: Degradation activities on ER (ELISA) in T47D breast cancer cells
- Assay type: cell-based
- Test parameters: T47D cells, 24 h, ELISA; maximum percentage of target protein degraded; read-out: Dmax
Recorded Dmax, one value per entry.

These solved cases illustrate the format of a correct answer.
Compound	Dmax
O=C1CCC(N2Cc3cc(N4CC5(CCN(CC6CCN(c7c(F)cc([C@@H]8c9ccc(O)cc9OC[C@@H]8c8ccccc8F)cc7F)CC6)CC5)C4)ccc3C2=O)C(=O)N1 (some centres unmarked) [Example 32]	50 to 75%
O=C1CCC(N2Cc3cc(N4CC5(CCN(CC6CCN(c7c(F)cc(C8=C(c9ccccc9F)COc9cc(OCc%10ccccc%10)ccc98)cc7F)CC6)CC5)C4)ccc3C2=O)C(=O)N1 (centres unmarked) [Example 52]	< 50%
O=C1CCC(N2Cc3cc(N4CC5(CCN(CC6CCN(c7c(F)cc(C8=C(c9c(F)cccc9F)COc9cc(OCc%10ccccc%10)ccc98)cc7F)CC6)CC5)C4)ccc3C2=O)C(=O)N1 (centres unmarked) [Example 43]	< 50%
O=C1CCC(N2Cc3cc(N4CC5(CCN(CC6CCN(c7c(F)cc(C8=C(c9c(F)cccc9F)COc9cc(O)ccc98)cc7F)CC6)CC5)C4)ccc3C2=O)C(=O)N1 (centres unmarked) [Example 42]	50 to 75%

Prompt line: Reported Dmax for O=C1CCC(N2Cc3cc(N4CC5(CCN(CC6CCN(c7ccc([C@@H]8c9ccc(O)cc9OC[C@@H]8c8ccccc8)cc7)CC6)CC5)C4)ccc3C2=O)C(=O)N1 (some centres unmarked) [Example 79] : what is it?
Response line: 50 to 75%

====

Recorded Dmax, one value per entry.
- Test target: ER (Homo sapiens, UniProt P03372)
- Construct: T47D breast cancer cells were subcultured in cell culture medium; endogenous in cells; host or cells: T47D breast cancer cells
- Test method notes: Degradation activities on ER (ELISA) in T47D breast cancer cells
- Assay type: cell-based
- Test parameters: T47D cells, 24 h, ELISA; maximum percentage of target protein degraded; read-out: Dmax

These solved cases illustrate the format of a correct answer.
Compound	Dmax
O=C1CCC(N2Cc3cc(N4CCC5(CCN(CC6CCN(c7ccc([C@@H]8c9ccc(O)cc9CC[C@@H]8c8ccccc8)cc7)CC6)C5)C4)ccc3C2=O)C(=O)N1 (some centres unmarked)	< 50%
O=C1CCC(N2C(=O)c3ccc(N4CC5(CCN(CC6CCN(c7ccc([C@@H]8c9ccc(O)cc9OC[C@@H]8c8ccccc8)cc7)CC6)CC5)C4)cc3C2=O)C(=O)N1 (some centres unmarked)	50 to 75%
O=C1CCC(N2Cc3cc(N4CC5(CCN(CC6CCN(c7c(F)cc([C@@H]8c9ccc(O)cc9OC[C@@H]8c8c(F)cccc8F)cc7F)CC6)CC5)C4)ccc3C2=O)C(=O)N1 (some centres unmarked)	50 to 75%
O=C1CCC(N2Cc3cc(N4CC5(CCN(CC6CCN(c7c(F)cc([C@H]8c9ccc(O)cc9OC[C@H]8c8ccccc8F)cc7F)CC6)CC5)C4)ccc3C2=O)C(=O)N1 (some centres unmarked)	< 50%

As a next step, examine the compound that follows.
Prompt line: Reported Dmax for O=C1CCC(N2C(=O)c3ccc(N4CCC(CN5CCC6(CC5)CN(c5ccc([C@@H]7c8ccc(O)cc8CC[C@@H]7c7ccccc7)cc5)C6)CC4)cc3C2=O)C(=O)N1 (some centres unmarked) : what is it?
Response line: 50 to 75%

====

- Test target: ER (Homo sapiens, UniProt P03372)
- Construct: T47D breast cancer cells were subcultured in cell culture medium; endogenous in cells; host or cells: T47D breast cancer cells
- Test method notes: Degradation activities on ER (ELISA) in T47D breast cancer cells
- Format: cell-based
- Test parameters: T47D cells, 24 h, ELISA; maximum percentage of target protein degraded; read-out: Dmax
Readout: Dmax

Compound	Dmax
O=C1CCC(N2C(=O)c3ccc(N4CCC5(CCN(CC6CCN(c7ccc([C@@H]8c9ccc(O)cc9CC[C@@H]8c8ccccc8)cc7)CC6)C5)C4)cc3C2=O)C(=O)N1 (some centres unmarked)	< 50%

Prompt line: Reported Dmax for O=C1CCC(N2Cc3cc(N4CC5(CCN(CC6CCN(c7ccc([C@@H]8c9ccc(O)cc9OC[C@@H]8c8cccc(F)c8F)cc7)CC6)CC5)C4)ccc3C2=O)C(=O)N1 (relative stereo) : what is it?
Response line: 50 to 75%
